target: DOR (Homo sapiens)
Sequence (P41143 whole entry): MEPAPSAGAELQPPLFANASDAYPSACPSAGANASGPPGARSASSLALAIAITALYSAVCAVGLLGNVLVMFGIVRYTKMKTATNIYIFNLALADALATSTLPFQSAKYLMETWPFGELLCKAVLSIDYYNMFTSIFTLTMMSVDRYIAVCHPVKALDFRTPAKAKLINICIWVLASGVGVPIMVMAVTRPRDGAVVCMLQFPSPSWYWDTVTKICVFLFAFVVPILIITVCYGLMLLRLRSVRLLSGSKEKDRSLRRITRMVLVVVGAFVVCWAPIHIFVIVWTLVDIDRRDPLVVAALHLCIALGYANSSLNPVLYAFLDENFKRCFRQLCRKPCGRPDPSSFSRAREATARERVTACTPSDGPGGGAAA
property: pKi
Here pKi is given on a logarithmic scale as minus log10 of the concentration in mol/L.

Any idea what its pKi is? The molecule is Oc1cccc(CCN(CCc2ccccc2)CC2CCC2)c1 [MCBPHA]
5.52

###

biological target: UniProtKB P33535
Sequence (P33535 whole entry): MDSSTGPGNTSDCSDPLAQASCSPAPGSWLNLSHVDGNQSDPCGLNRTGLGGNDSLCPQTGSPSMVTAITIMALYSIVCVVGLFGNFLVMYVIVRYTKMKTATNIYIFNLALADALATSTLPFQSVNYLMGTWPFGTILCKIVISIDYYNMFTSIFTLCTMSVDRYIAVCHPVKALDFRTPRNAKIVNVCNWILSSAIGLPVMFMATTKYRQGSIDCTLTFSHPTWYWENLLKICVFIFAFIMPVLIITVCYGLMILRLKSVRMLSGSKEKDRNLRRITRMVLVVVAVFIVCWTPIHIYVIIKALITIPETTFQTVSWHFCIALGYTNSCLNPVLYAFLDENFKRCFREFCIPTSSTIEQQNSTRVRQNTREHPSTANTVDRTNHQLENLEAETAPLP
property: Ki (nM)
Your answer is read as nM, so omit the unit and give the number.

Any idea what its Ki is? The molecule is Oc1cccc(CCN(CCc2ccccc2)CC2CCC2)c1
270
